Please provide measured logD for the entries that follow.
experiment: Log D, lipophilicity of the compound by HPLC analysis; format: physicochemical
Lab note: record just the number, no unit beside it.

Exercise: Any idea what logD was measured for C=C(c1ccc(C(=O)O)cc1)c1cc2c(cc1C)C(C)(C)CCC2(C)C ?
Key: 4.74

Exercise: Proceed to Cc1cccc(Nc2cc(Cl)nc(SCC(=O)O)n2)c1C
Key: 1.63
